Molecular target: hGLP-1R (Homo sapiens, UniProt P43220)
Sequence (P43220 24-463): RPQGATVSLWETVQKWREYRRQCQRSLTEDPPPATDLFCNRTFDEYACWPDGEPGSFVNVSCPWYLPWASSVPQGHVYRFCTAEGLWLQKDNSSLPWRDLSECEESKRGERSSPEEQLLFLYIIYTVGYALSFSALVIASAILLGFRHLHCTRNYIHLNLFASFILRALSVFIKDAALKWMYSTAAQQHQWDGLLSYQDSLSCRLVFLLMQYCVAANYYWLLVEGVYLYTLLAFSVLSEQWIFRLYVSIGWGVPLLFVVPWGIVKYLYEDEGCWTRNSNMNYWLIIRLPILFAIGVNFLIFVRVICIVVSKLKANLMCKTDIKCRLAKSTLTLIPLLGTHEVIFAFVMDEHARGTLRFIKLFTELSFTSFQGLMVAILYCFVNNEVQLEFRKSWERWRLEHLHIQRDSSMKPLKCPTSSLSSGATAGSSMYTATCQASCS
Experiment: cell-based or functional assay
Measured cAMP Rel EC50, nM (1% HSA), listed per entry.
parameter_measured: cAMP Rel EC50, nM (1% HSA)

binder: YXQGTXTSDYSIXLDKKAQXAFIEYLEEGGPSSGAPPPS (synthetic construct; SITE 2: note = 2-Aminoisobutyric Acid; SITE 6: note = alpha-methyl-2-fluoro-L-phenylalanine; SITE 13: note = alpha-methyl-leucine; SITE 17: note = Lysine is chemically modified through conjugation of the epsilon-amino group of the Lysine side chain with (2-[2-(2-Amino-ethoxy)-et)) [Example 421]
result: 31.9 nM
--
binder: YXQGTFTSDXSQXLDXKAQXQFIEXLIEGGPSSGAPPPSGSEE (non-natural residues; lipidated Lys AEEA-γGlu-C18 diacid; C-term amide; synthetic construct; SITE 2: note = 2-Aminoisobutyric Acid; SITE 10: note = 3-(4-Pyridyl)-L-alanine; SITE 13: note = alpha-methyl-leucine; SITE 16: note = L-ornithine; SITE 17: note = Lysine is chemically modified through conjugation of the epsilon-amino group of the Lysine side chain with (2-[2-(2-) [Example 1045]
result: 276 nM
--
binder: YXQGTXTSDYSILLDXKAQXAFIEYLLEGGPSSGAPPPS (synthetic construct; SITE 2: note = 2-Aminoisobutyric Acid; SITE 6: note = alpha-methyl-2-fluoro-L-phenylalanine; SITE 16: note = L-ornithine; SITE 17: note = Lysine is chemically modified through conjugation of the epsilon-amino group of the Lysine side chain with (2-[2-(2-Amino-ethoxy)-ethoxy]-ace)) [Example 427]
result: 42.9 nM
